# assay.system: Glucagon-like peptide 1 receptor (Homo sapiens)
# test.summary: Positive allosteric modulation of human GLP-1 receptor in HEK cells expressing luciferase2P assessed as cAMP level incubated for 4 hrs by luciferase based assay relative to GLP-1
# Format: functional, cell-based
# Set-up: concentration or dose not given beside the values
# measurement.parameters: filed as positive allosteric modulator
property.measured: Activity (%)

Here's what some known entries look like.
[
  {
    "molecule": "CCOC(=O)c1c(N)sc2c1CCN(C(=O)OCC)C2",
    "assay.system": "Glucagon-like peptide 1 receptor (Homo sapiens)",
    "Activity, %": 258
  },
  {
    "molecule": "CCOC(=O)c1c(N)sc2c1CCOC2",
    "assay.system": "Glucagon-like peptide 1 receptor (Homo sapiens)",
    "Activity, %": 86.5
  },
  {
    "molecule": "CCOC(=O)c1c(N)sc2c1CCC(C(F)(F)F)C2 (racemic)",
    "assay.system": "Glucagon-like peptide 1 receptor (Homo sapiens)",
    "Activity, %": 183
  }
]

I = CCOC(=O)c1c(N)sc2c1CCC(C(C)(C)C)C2 (racemic)
II = CC1CCc2c(sc(N)c2C(=O)c2ccc(Cl)cc2)C1 (racemic)
III = CCOC(=O)c1c(N)sc2c1CCN(C1CC1)C2
Asked: Number of molecules to sort: 3. Sort criterion: Activity, ascending. Rank them, then answer with their labels in that order.
Given back: III, II, I

a = CCOC(=O)c1c(N)sc2c1CCC(C)C2 (racemic)
b = C=CCOC(=O)N1CCc2c(sc(N)c2C(=O)c2ccccc2)C1
Asked: In the pair a and b , the larger recorded Activity belongs to which? The response must carry the label of the picked entry.
Given back: b
(b: 247%, a: 159%)

P = CCOC(=O)c1c(N)sc2c1CCSC2
Q = Nc1sc2c(c1C(=O)c1ccccc1)CCN(S(=O)(=O)C1CC1)C2
Asked: For the pair P and Q , which entry has the numerically smaller recorded Activity? // caller expects the label of the chosen entry
Given back: Q

a = CC(=O)N1CCc2c(sc(N)c2C(=O)c2ccc(C)cc2)C1
b = CCOC(=O)c1c(N)sc2c1CCN(CC)C2
Asked: Thinking about recorded Activity values, which is higher, a or b ? Please indicate the selected item by its label.
Given back: a

====

# assay.system: Glucagon-like peptide 1 receptor (Homo sapiens)
# test.summary: Positive allosteric modulation of human GLP-1 receptor in HEK cells expressing luciferase2P assessed as fold increase in GLP-1R activity incubated for 4 hrs in presence of GLP-1 by luciferase based assay relative to GLP-1 alone
# Format: cell-based
# measurement.parameters: filed as positive allosteric modulator
property.measured: fold change (FC)

[
  {
    "compound": "CCOC(=O)c1c(N)sc2c1CCOC2",
    "fold change (FC)": "> 2"
  },
  {
    "compound": "CCOC(=O)c1c(N)sc2c1CCN(C1CC1)C2",
    "fold change (FC)": "> 2"
  },
  {
    "compound": "CC(=O)N1CCc2c(sc(N)c2C(=O)c2ccc(Cl)cc2)C1",
    "fold change (FC)": "> 2"
  },
  {
    "compound": "CS(=O)(=O)N1CCc2c(sc(N)c2C(=O)c2ccc(Cl)cc2)C1",
    "fold change (FC)": "> 2"
  },
  {
    "compound": "CCOC(=O)c1c(N)sc2c1CCN(C(C)=O)C2",
    "fold change (FC)": "> 2"
  }
]

Asked: # get_value(readout='fold change (FC)', item= CCN1CCc2c(sc(N)c2C(=O)c2ccc(C)cc2)C1 )
Given back: > 2

====

# assay.system: Glucagon-like peptide 1 receptor (Homo sapiens)
# test.summary: Positive allosteric modulation of human GLP-1 receptor in HEK cells expressing luciferase2P assessed as cAMP level incubated for 4 hrs by luciferase based assay relative to GLP-1
# Format: functional, cell-based
# Parameters: concentration or dose not given beside the values
# measurement.parameters: filed as positive allosteric modulator
property.measured: Activity (%)

[
  {
    "molecule": "CCOC(=O)c1c(N)sc2c1CC(C)(C)CC2",
    "Activity (%)": 133
  }
]

a = CCOC(=O)N1CCc2c(sc(N)c2C(=O)c2ccccc2)C1
b = Cc1ccc(C(=O)c2c(N)sc3c2CCSC3)cc1
c = CCOC(=O)c1c(N)sc2c1CCN(C(C)=O)C2
Asked: Task field, ranking: reported Activity, descending order. Please, when replying, give the labels in the order that was requested.
Given back: a, c, b
(a: 233%, c: 147%, b: 92.5%)

I = CC(=O)N1CCc2c(sc(N)c2C(=O)c2ccccc2)C1
II = Cc1ccc(C(=O)c2c(N)sc3c2CCOC3)cc1
III = CCOC(=O)c1c(N)sc2c1C(C)CCC2 (racemic)
Asked: Order the records so the highest Activity appears first and the lowest last. The labels, placed in the requested order, form the answer.
Given back: I, II, III

====

# assay.system: UniProtKB P43220
# Sequence (P43220 whole entry): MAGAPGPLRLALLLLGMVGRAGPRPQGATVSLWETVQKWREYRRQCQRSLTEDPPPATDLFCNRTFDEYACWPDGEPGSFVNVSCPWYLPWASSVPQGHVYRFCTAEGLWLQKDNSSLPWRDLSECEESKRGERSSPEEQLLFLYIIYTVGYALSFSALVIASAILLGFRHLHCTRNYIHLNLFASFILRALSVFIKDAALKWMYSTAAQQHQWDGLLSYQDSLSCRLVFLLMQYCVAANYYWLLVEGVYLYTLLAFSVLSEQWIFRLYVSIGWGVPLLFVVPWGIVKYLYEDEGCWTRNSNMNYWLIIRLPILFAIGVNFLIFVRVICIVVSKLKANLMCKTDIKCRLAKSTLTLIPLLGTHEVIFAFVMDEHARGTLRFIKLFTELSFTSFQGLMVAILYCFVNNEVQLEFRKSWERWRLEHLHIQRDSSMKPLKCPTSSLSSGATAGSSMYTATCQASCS
# test.summary: Positive allosteric modulation of human GLP-1 receptor in HEK cells expressing luciferase2P assessed as cAMP level incubated for 4 hrs by luciferase based assay relative to GLP-1
# Type: functional, cell-based
# Parameters: concentration or dose not given beside the values
# measurement.parameters: filed as positive allosteric modulator
property.measured: Activity (%)

Solved cases (10 shown):
[
  {
    "molecule": "CCOC(=O)c1c(N)sc2c1CCC(C)(C)C2",
    "assay.system": "UniProtKB P43220",
    "Activity / %": 164
  },
  {
    "molecule": "CCOC(=O)c1c(N)sc2c1CCN(C(=O)OC(C)(C)C)C2",
    "assay.system": "UniProtKB P43220",
    "Activity / %": 164
  },
  {
    "molecule": "CCOC(=O)c1c(N)sc2c1CCN(C)C2",
    "assay.system": "UniProtKB P43220",
    "Activity / %": 75.7
  },
  {
    "molecule": "CCOC(=O)c1c(N)sc2c1CCN(C(C)C)C2",
    "assay.system": "UniProtKB P43220",
    "Activity / %": 82.2
  },
  {
    "molecule": "Cc1ccc(C(=O)c2c(N)sc3c2CCN(C(=O)OCc2ccccc2)C3)cc1",
    "assay.system": "UniProtKB P43220",
    "Activity / %": 98.1
  },
  {
    "molecule": "C=CCOC(=O)N1CCc2c(sc(N)c2C(=O)OCC)C1",
    "assay.system": "UniProtKB P43220",
    "Activity / %": 232
  },
  {
    "molecule": "Nc1sc2c(c1C(=O)c1ccc(Cl)cc1)CCSC2",
    "assay.system": "UniProtKB P43220",
    "Activity / %": 112
  },
  {
    "molecule": "CCOC(=O)c1c(N)sc2c1CCC(C(C)C)C2 (racemic)",
    "assay.system": "UniProtKB P43220",
    "Activity / %": 247
  },
  {
    "molecule": "CCOC(=O)c1c(N)sc2c1CCN(C(=O)OCc1ccccc1)C2",
    "assay.system": "UniProtKB P43220",
    "Activity / %": 184
  },
  {
    "molecule": "CCOC(=O)N1CCc2c(sc(N)c2C(=O)c2ccc(C)cc2)C1",
    "assay.system": "UniProtKB P43220",
    "Activity / %": 98.1
  }
]

I = CC(=O)N1CCc2c(sc(N)c2C(=O)c2ccc(Cl)cc2)C1
II = CCOC(=O)c1c(N)sc2c1CCN(S(=O)(=O)C1CC1)C2
III = Nc1sc2c(c1C(=O)c1ccc(Cl)cc1)CCN(C(=O)OCc1ccccc1)C2
Asked: # sort list by recorded Activity, greatest to least I'd appreciate it if you listed the labels in the requested order.
Given back: I, III, II

====

# assay.system: Glucagon-like peptide 1 receptor (Homo sapiens)
# test.summary: Positive allosteric modulation of human GLP-1 receptor in HEK cells expressing luciferase2P assessed as cAMP level incubated for 4 hrs by luciferase based assay relative to GLP-1
# Assay type: functional, cell-based
# Design: concentration or dose not given beside the values
# measurement.parameters: filed as positive allosteric modulator
property.measured: Activity (%)

[
  {
    "compound": "CN1CCc2c(sc(N)c2C(=O)c2ccc(Cl)cc2)C1",
    "property.measured": "Activity",
    "reading.unit": "%",
    "result.number": 124
  },
  {
    "compound": "CCCC1CCc2c(sc(N)c2C(=O)OCC)C1 (racemic)",
    "property.measured": "Activity",
    "reading.unit": "%",
    "result.number": 157
  },
  {
    "compound": "CCOC(=O)N1CCc2c(sc(N)c2C(=O)c2ccc(Cl)cc2)C1",
    "property.measured": "Activity",
    "reading.unit": "%",
    "result.number": 222
  },
  {
    "compound": "CS(=O)(=O)N1CCc2c(sc(N)c2C(=O)c2ccc(Cl)cc2)C1",
    "property.measured": "Activity",
    "reading.unit": "%",
    "result.number": 142
  },
  {
    "compound": "Cc1ccc(C(=O)c2c(N)sc3c2CCC(C)C3)cc1 (racemic)",
    "property.measured": "Activity",
    "reading.unit": "%",
    "result.number": 242
  }
]

a = Nc1sc2c(c1C(=O)c1ccc(Cl)cc1)CCOC2
b = Cc1ccc(C(=O)c2c(N)sc3c2CCC(C)(C)C3)cc1
c = CCN1CCc2c(sc(N)c2C(=O)c2ccc(C)cc2)C1
Asked: // smallest Activity at index 0, largest at the end Answer format: the labels, in the requested order.
Given back: c, a, b
(c: 99.3%, a: 177%, b: 268%)
